biological target: T1, recombinant CD28 antigen (extracellular domain, expressed in mammalian cells) (UniProt P10747 19-152, limits assumed); experiment: SPR (Biacore), CD28 ECD on CM5 chip, Fab as analyte at 50 ug/mL, 1:1 binding mass transfer model
T1 construct: extracellular domain; Immobilized on a CM5 chip by amine coupling; also called T-cell-specific surface glycoprotein CD28
ATTRIBUTE MEASURED: kon (M⁻¹ s⁻¹)

{"BINDER": "huCD28_v3 Fab (humanized) (Fab, V domains shown, not shown: small tags and cut ends, Humanized 15E8 Fab expressed in E. coli periplasm) VH: QVQLQESGPGLVKPSETLSLTCTVSGFSLTSYGVHWIRQPPGKGLEWLGVIWAGGSTNYNSSLKSRVTISKDTSKNQVFLKLSSVTADDTAVYYCARDKRAPGKLYYGYPDYWGQGTTLTVSS VL: DIVMTQSPDSLAVSLGERATINCRASESVEYYVTSLMQWYQQKPGQPPKLLIYAASNVESGVPARFSGSGSGTDFTLTISPLQAEDVAVYYCQQTRKVPSTFGGGTKLEIKR", "RECORDED RESULT": 500000}
{"BINDER": "huCD28_v2 Fab (humanized) (Fab, V domains shown, not shown: small tags and cut ends, Humanized 15E8 Fab expressed in E. coli periplasm) VH: QVQLQESGPGLVKPSETLSLTCTVSGFSLTSYGVHWVRQPPGKGLEWIGVIWAGGSTNYNPSLKSRVTISKDTSKNQFSLKLSSVTAADTAVYYCARDKRAPGKLYYGYPDYWGQGTTLTVSS VL: DIVMTQSPDSLAVSLGERATINCKSSESVEYYVTSLLQWYQQKPGQPPKLLIYAASNRESGVPDRFSGSGSGTDFTLTISSLQAEDVAVYYCQQTRKVPSTFGGGTKLEIKR", "RECORDED RESULT": 600000}
{"BINDER": "huCD28_v1 Fab (humanized) (Fab, V domains shown, not shown: small tags and cut ends, Humanized 15E8 Fab expressed in E. coli periplasm) VH: QVQLQESGPGLVKPSETLSLTCTVSGFSLTSYGVHWVRQPPGKGLEWLGVIWAGGSTNYNSALMSRLTISKDTSKNQVSLKLSSVTAADTAVYYCARDKRAPGKLYYGYPDYWGQGTTLTVSS VL: DIVMTQSPDSLAVSLGERATINCRASESVEYYVTSLMQWYQQKPGQPPKLLIYAASNVESGVPDRFSGSGSGTDFTLTISSLQAEDVAVYYCQQTRKVPSTFGGGTKLEIKR", "RECORDED RESULT": "1.9e+06"}
{"BINDER": "huCD28_v4 Fab (humanized) (Fab, V domains shown, not shown: small tags and cut ends, Humanized 15E8 Fab expressed in E. coli periplasm) VH: QVQLQESGPGLVKPSETLSLTCTVSGFSLTSYGVHWIRQPPGKGLEWLGVIWAGGSTNYNSSLKSRVTISKDTSKNQVSLKLSSVTAADTAVYYCARDKRAPGKLYYGYPDYWGQGTTLTVSS VL: DIVMTQSPDSLAVSLGERATINCRASESVEYYVTSLMQWYQQKPGQPPKLLIYAASNVESGVPARFSGSGSGTDFTLTISPLQAEDVAVYYCQQTRKVPSTFGGGTKLEIKR", "RECORDED RESULT": 400000}
